All values here come from ChEMBL document CHEMBL4513216.

# System: Plasmodium berghei
# Assay text: Screen against P. berghei liver stage (PbLuc), transformed with Luciferase, at 2uM
# Assay type: functional, HepG2
# Reported conditions: tested at 2 uM
Out of some 68,000 compounds screened, about 2,700 (4%) showed an effect of 50% or more. The full list was thinned out, with strong results kept by preference.
// INHIBITION lookup, one value per entry
Give the number; % is assumed, so skip it.

• CCC(CC)NC(=O)c1ncn2c1CN(CC)S(=O)(=O)c1ccccc1-2 = 14.52

// field: INHIBITION; key: NC(=O)c1ccc(CN2CCC(N3CCCC3)CC2)cc1 ; value = -29.69

// field: INHIBITION; key: NC(=O)c1ccc(CN2CCCC(N3CCCC3)C2)cc1 (stereo unspecified) ; value = 58.65

// field: INHIBITION; key: O=S1(=O)c2cccnc2OC(COc2ccccc2)CN1CC1CC1 (stereo unspecified) ; value = 22.01

// field: INHIBITION; key: O=C1NCCCCC1NCc1csc(-c2ccc(F)cc2)n1 (stereo unspecified) ; value = 13.91

// field: INHIBITION; key: Cc1nccn1C1CCCN(C(=O)c2ccc3nnc(C)n3c2)C1 (stereo unspecified) ; value = 6.12
